# tgt: 17X-PTDH-R301A (Stutzerimonas stutzeri (Pseudomonas stutzeri), UniProt O69054, D13E/E130K/I150F/M26I/Q132R/Q137R/R301A/V71I, form not given)
# Sequence (O69054 1-329 D13E/E130K/I150F/M26I/Q132R/Q137R/R301A/V71I): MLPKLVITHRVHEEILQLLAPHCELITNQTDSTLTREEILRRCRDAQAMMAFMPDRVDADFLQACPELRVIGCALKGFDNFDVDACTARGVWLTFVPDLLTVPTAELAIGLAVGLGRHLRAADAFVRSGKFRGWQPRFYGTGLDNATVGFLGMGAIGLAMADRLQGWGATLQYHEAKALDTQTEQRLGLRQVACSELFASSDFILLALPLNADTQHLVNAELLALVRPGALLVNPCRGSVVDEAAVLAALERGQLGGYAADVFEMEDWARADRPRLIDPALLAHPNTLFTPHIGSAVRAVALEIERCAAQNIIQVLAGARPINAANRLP
# Type: biochemical, Pseudomonas stutzeri WM88
# conditions: R301A, k cat,apparent at saturating rescue reagent; 100 mM MOPS pH 7.25, 25°C, 4 mM NAD+
quantity: k rescue

Solved entries:
>  <chemicalString>
N=C(N)NN

>  <measuredResult>
1.4 (0.1) s^−1

$$$$
>  <chemicalString>
CCNC(=N)N

>  <measuredResult>
0.52 (0.13) s^−1

$$$$
>  <chemicalString>
CC(=N)N

>  <measuredResult>
0.86 (0.08) s^−1

$$$$
>  <chemicalString>
CN=C(N)N

>  <measuredResult>
0.68 (0.04) s^−1

$$$$

k rescue for "N=C(N)N" is 1.2 (0.1) s^−1

----------
# tgt: 17X-PTDH-R301A (Stutzerimonas stutzeri (Pseudomonas stutzeri), UniProt O69054, D13E/E130K/I150F/M26I/Q132R/Q137R/R301A/V71I, form not given)
# Type: biochemical, Pseudomonas stutzeri WM88
# conditions: exogenous reagent; unsuccessful ones tested at 20–100 mM depending on solubility
quantity: Rescue of activity of the R301A mutant

Solved entries:
>  <molecule>
CN [methylamine]

>  <Rescue of activity of the R301A mutant>
not observed

$$$$
>  <molecule>
CCNC(=N)N [ethylguanidine]

>  <Rescue of activity of the R301A mutant>
markedly improved

$$$$
>  <molecule>
CCN [ethylamine]

>  <Rescue of activity of the R301A mutant>
not observed

$$$$
>  <molecule>
NC(N)=O [urea]

>  <Rescue of activity of the R301A mutant>
not observed

$$$$
>  <molecule>
NC(=O)NO [hydroxyurea]

>  <Rescue of activity of the R301A mutant>
not observed

$$$$

Each molecule below has a recorded value; state its Rescue of activity of the R301A mutant.
1. CN=C(N)N [methylguanidine]
2. N=C(N)NN [aminoguanidine]
3. CC(=N)N [acetamidine]
4. N=C(N)N [guanidine]
5. NC(N)=S [thiourea]
6. CCCCN [butylamine, n-butylamine]

["markedly improved", "markedly improved", "markedly improved", "markedly improved", "not observed", "not observed"]

----------
# tgt: 17X-PTDH-R301A (Stutzerimonas stutzeri (Pseudomonas stutzeri), UniProt O69054, D13E/E130K/I150F/M26I/Q132R/Q137R/R301A/V71I, form not given)
# Type: biochemical, Pseudomonas stutzeri WM88
# conditions: R301A + saturating 300 mM aminoguanidine; pH 7.25; read-out: K is
quantity: Ki (µM)
Numbers only, in µM.

Ki for O=S(O)O [sulfite] is 78

----------
# tgt: 17X-PTDH-R301A (Stutzerimonas stutzeri (Pseudomonas stutzeri), UniProt O69054, D13E/E130K/I150F/M26I/Q132R/Q137R/R301A/V71I, form not given)
# Format: biochemical, Pseudomonas stutzeri WM88
# conditions: saturating rescue reagent (>20 K R), deuterated vs protiated phosphite, pH 7.25, 25°C
quantity: ^D k cat

>  <chemicalString>
CC(=N)N

>  <^D k cat>
1.5 (0.1)

$$$$

Each compound below has a recorded value; state its ^D k cat.
1. CN=C(N)N
2. N=C(N)N
3. N=C(N)NN

1.4 (0.1)
1.8 (0.1)
2.1 (0.1)

----------
# tgt: 17X-PTDH-R301A (Stutzerimonas stutzeri (Pseudomonas stutzeri), UniProt O69054, D13E/E130K/I150F/M26I/Q132R/Q137R/R301A/V71I, form not given)
# conditions: R301A, pH 7.25, 25°C; read-out: K R (concentration of rescue reagent at which half-maximal rate was observed)
Kindly state EC50 for each of the entries shown.
Give bare numbers, in mM.

>  <chemicalString>
N=C(N)N

>  <measuredResult>
18

$$$$
>  <chemicalString>
CC(=N)N

>  <measuredResult>
63

$$$$
>  <chemicalString>
N=C(N)NN

>  <measuredResult>
32

$$$$

Now let's try a different one.
EC50 for "CN=C(N)N" is 55

----------
# tgt: 17X-PTDH-R301A (Stutzerimonas stutzeri (Pseudomonas stutzeri), UniProt O69054, D13E/E130K/I150F/M26I/Q132R/Q137R/R301A/V71I, form not given)
# Assay type: biochemical, Pseudomonas stutzeri WM88
# conditions: saturating rescue reagent (>20 K R), deuterated vs protiated phosphite, pH 7.25, 25°C
quantity: ^D k cat/K m

>  <chemicalString>
N=C(N)N

>  <measuredResult>
2.3 (0.1)

$$$$
>  <chemicalString>
N=C(N)NN

>  <measuredResult>
3.1 (0.3)

$$$$
>  <chemicalString>
CN=C(N)N

>  <measuredResult>
1.6 (0.5)

$$$$

Now let's try a different one.
^D k cat/K m for "CC(=N)N" is 1.8 (0.6)

----------
# tgt: 17X-PTDH-R301A (Stutzerimonas stutzeri (Pseudomonas stutzeri), UniProt O69054, D13E/E130K/I150F/M26I/Q132R/Q137R/R301A/V71I, form not given)
# Type: biochemical, Pseudomonas stutzeri WM88
# conditions: R301A with saturating rescue reagent, pH 7.25
Kindly state k rescue/ K m, phosphite for each of the entries shown.

>  <chemicalString>
CN=C(N)N

>  <measuredResult>
5.2 (1.1) M^−1 s^−1

$$$$
>  <chemicalString>
CC(=N)N

>  <measuredResult>
6.7 (1.1) M^−1 s^−1

$$$$
>  <chemicalString>
N=C(N)NN

>  <measuredResult>
180 (10) M^−1 s^−1

$$$$

k rescue/ K m, phosphite for "N=C(N)N" is 41 (4) M^−1 s^−1

----------
# tgt: 17X-PTDH
# assayDetails: Sulfite inhibition of 17X-PTDH
# conditions: competitive vs phosphite, 4 mM NAD+, pH 7.25, read-out: K is
quantity: Ki (nM)
Numbers only, in nM.

Ki for "O=S(O)O" is 310
